nuclei count listing for selected molecules.
# ASSAY OVERVIEW: endothelial E-selectin expression blockers – imaging, HUVEC, immunofluorescence, MLSMR starter and 10KST1 sets, primary screen (AID 487);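 note: 100% = median nuclei count of all wells on the same plate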
# CONDITION INFO: HUVEC TNFalpha-induced E-selectin immunofluorescence imaging, at 2 µM; measured here: cell number, toxicity
Write down the numeric answer in % and omit the unit.

Entry CCOC(=O)c1nnc2cc(-c3ccc(Br)cc3)nn2c1C : reported nuclei count = ?
105

Can you check O=C(O)C(c1ccccc1)N1CCCC1 (stereo unspecified) next?
104

###

# ASSAY OVERVIEW: inhibitors of TNFa-induced NFkB p65 translocation, primary screen, imaging, HUVEC, MLSMR starter and 10KST1 sets (AID 438);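 note: compound added about 3h40 before a 20 min TNFalpha stimulation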
# CONDITION INFO: HUVEC TNFa-induced p65 nuclear translocation; measured here: nuclei count (cytotoxicity indicator), at 2.08 µM
cell count listing for selected compounds.
# respond with the number and nothing more

[
  {
    "COMPOUND": "CN1C(=O)C(O)(CC(=O)c2ccccc2O)c2cc(Br)ccc21 (centres undefined)",
    "cell count": 608
  }
]

Entry Cc1c(=O)n(OCc2ccccn2)c2ccccc2[n+]1[O-] : reported cell count = ?
208

Can you check Cc1ccc2nc3c(cc2c1)CN(Cc1ccco1)C(=NCC1CCCO1)S3 (centres undefined) next?
543

Can you check Cc1noc(NS(=O)(=O)c2ccc(NC(=O)CCC3CCCC3)cc2)c1C next?
472
